- assayText: Solubility of the compounds in water, methanol and isopropanol
- Assay type: physicochemical
- recordedConditions: solvent isopropanol
observedProperty: Solubility in Isopropanol (mg/mL)

Some solved entries appear below for comparison.
>  <molecule>
O=C1Cc2ccccc2C(=C2CCN(CCCOP(=O)(O)O)CC2)c2ccsc21 [Compound III-3]

>  <unitAbbreviation>
mg/mL

>  <reported>
24

$$$$
>  <molecule>
OCCCN1CCC(=C2c3ccc(Cl)cc3CCc3cccnc32)CC1 [Hydroxypropyl desloratadine, reference compound]

>  <unitAbbreviation>
mg/mL

>  <reported>
26

$$$$
>  <molecule>
OCCN1CCC(=C2c3ccc(Cl)cc3CCc3cccnc32)CC1 [Hydroxyethyl desloratadine, reference compound]

>  <unitAbbreviation>
mg/mL

>  <reported>
21

$$$$
>  <molecule>
OCCCCCCN1CCC(=C2c3ccc(Cl)cc3CCc3cccnc32)CC1 [Hydroxyhexyl desloratadine, reference compound]

>  <unitAbbreviation>
mg/mL

>  <reported>
32

$$$$
>  <molecule>
OCCCCN1CCC(=C2c3ccc(Cl)cc3CCc3cccnc32)CC1 [Hydroxybutyl desloratadine, reference compound]

>  <unitAbbreviation>
mg/mL

>  <reported>
28

$$$$

A: OCCCCCN1CCC(=C2c3ccc(Cl)cc3CCc3cccnc32)CC1 [Hydroxypentyl desloratadine, reference compound]
B: O=C1Cc2ccccc2C(=C2CCN(CCCOP(=O)(O)O)CC2)c2ccsc21 [Compound IV-3]
// query I'd appreciate it if you could identify which of A and B has the greater Solubility in Isopropanol. Reply briefly: the label of your chosen item.
// result A

====

- assayText: Accelerated stability test
- Assay type: physicochemical
- recordedConditions: Month 2; 40°C ± 2°C, relative humidity 75% ± 5%
observedProperty: Related substances (%)

>  <compound>
O=C1Cc2ccccc2C(=C2CCN(CCCOCOP(=O)(O)O)CC2)c2ccsc21

>  <unitAbbreviation>
%

>  <Related substances>
0.10

$$$$
>  <compound>
O=C1Cc2ccccc2C(=C2CCN(CCCOP(=O)(O)O)CC2)c2ccsc21 [Compound III-3]

>  <unitAbbreviation>
%

>  <Related substances>
0.10

$$$$

I: O=C1Cc2ccccc2C(=C2CCN(COP(=O)(O)O)CC2)c2ccsc21
II: O=C1Cc2ccccc2C(=C2CCN(CCCCOCOP(=O)(O)O)CC2)c2ccsc21
// query Related substances comparison. Which is larger, I or II ? Selection: enter the item's label.
// result I
(I: 0.09%, II: 0.05%)

====

- assayText: Solubility of the compounds in water, methanol and isopropanol
- Format: physicochemical
- recordedConditions: solvent methanol
observedProperty: Solubility in Methanol (mg/mL)

>  <compound>
OCCCCN1CCC(=C2c3ccc(Cl)cc3CCc3cccnc32)CC1 [Hydroxybutyl desloratadine, reference compound]

>  <unitAbbreviation>
mg/mL

>  <Solubility in Methanol>
22

$$$$
>  <compound>
OCCN1CCC(=C2c3ccc(Cl)cc3CCc3cccnc32)CC1 [Hydroxyethyl desloratadine, reference compound]

>  <unitAbbreviation>
mg/mL

>  <Solubility in Methanol>
27

$$$$
>  <compound>
OCCCN1CCC(=C2c3ccc(Cl)cc3CCc3cccnc32)CC1 [Hydroxypropyl desloratadine, reference compound]

>  <unitAbbreviation>
mg/mL

>  <Solubility in Methanol>
24

$$$$
>  <compound>
OCCCCCCN1CCC(=C2c3ccc(Cl)cc3CCc3cccnc32)CC1 [Hydroxyhexyl desloratadine, reference compound]

>  <unitAbbreviation>
mg/mL

>  <Solubility in Methanol>
15

$$$$
>  <compound>
OCCCCCN1CCC(=C2c3ccc(Cl)cc3CCc3cccnc32)CC1 [Hydroxypentyl desloratadine, reference compound]

>  <unitAbbreviation>
mg/mL

>  <Solubility in Methanol>
19

$$$$
